Molecular target: T1, soluble cynomolgus macaque CD200R1 extracellular domain (cynomolgus macaque, UniProt G7NZT0 29-266)
T1 construct: extracellular domain; also called Cynomolgus CD200R
T1 sequence: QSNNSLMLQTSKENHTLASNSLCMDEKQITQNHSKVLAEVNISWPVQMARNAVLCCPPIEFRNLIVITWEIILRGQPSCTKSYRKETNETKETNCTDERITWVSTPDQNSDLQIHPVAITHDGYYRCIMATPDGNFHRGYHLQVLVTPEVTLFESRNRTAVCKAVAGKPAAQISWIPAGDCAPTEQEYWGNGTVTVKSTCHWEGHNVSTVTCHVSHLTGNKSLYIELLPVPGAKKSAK
Test: SPR, captured antibody, soluble monomeric receptor injected, single cycle kinetics, 37 C
measuredMetric: pKd
Give bare numbers, as −log10 of the molar value.

# query: pKd of entry anti-CD200R antibody clone 26.1.2 (mIgG1k isotype) (antibody, V domains shown, Murine hybridoma antibody, IgG1 kappa) VH: EVQLQQSGPELVKPGASVKMSCKASGYTFTSYVMHWVKQKPGQGLEWIGYIHPYNDDIKHNEKFKDKATLTSAKSSSTVYMELSSLTSEDSAVYYCAREEYYGSRFAYWGQGTLVTVSA VL: DIVLTQSPASLAVSLGQRATISCRASKSVRTSGYSYLHWYQQKPGQPPKLLIYLASNLESGVPARFSGSGSGTDFTLNIHPVEEEDAATYYCQYSGELPFTFGGGTKLEIKR
7.22
